From: patent US11472877

- study-target: T1, human TREM2 on BWZ cells (human, UniProt Q9NZC2 19-230)
- T1 construct: whole, on cells; not tied to the cell line; also called BWZ Human TREM2
- T1 sequence (looked up): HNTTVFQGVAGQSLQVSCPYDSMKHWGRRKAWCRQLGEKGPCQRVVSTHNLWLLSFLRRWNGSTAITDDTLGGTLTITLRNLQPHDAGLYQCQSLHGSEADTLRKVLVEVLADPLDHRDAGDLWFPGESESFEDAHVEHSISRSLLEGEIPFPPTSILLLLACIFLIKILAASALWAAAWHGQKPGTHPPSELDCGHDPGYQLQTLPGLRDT
- experiment-summary: FACS, BWZ cells

| binder | binding result |
| --- | --- |
| T1-23 (antibody, IgG1, V domains shown, huIgG1; also called TI-23; ADI-19090) VH: EVQLVESGGGLVQPGRSLRLSCAASGFTFDDYAMHWVRQAPGKGLEWVSGITWNSGSIGYADSVKGRFTISRDNAKNSLYLQMNSLRAEDTALYYCAKGPRLLSALDVWGQGTMVTVSS VL: DIQMTQSPSTLSASVGDRVTITCRASQSIGSWLAWYQQKPGKAPKLLIYKASSLESGVPSRFSGSGSGTEFTLTISSLQPDDFATYYCQQHQSFSPTFGGGTKVEIK | no binding |
| T1-77 (antibody, IgG1, V domains shown, huIgG1; also called TI-77; ADI-19154) VH: QVQLQESGPGLVKPSETLSLTCAVSGYSISSGYYWAWIRQPPGKGLEWIGSIYHSGSTYYNPSLKSRVTISVDTSKNQFSLKLSSVTAADTAVYYCARGGPYPWSGWFDPWGQGTLVTVSS VL: EIVMTQSPATLSVSPGERATLSCRASQSVGSNLAWYQQKPGQAPRLLIYGASTRATGIPARFSGSGSGTEFTLTISSLQSEDFAVYYCQQHDVWPYTFGGGTKVEIK | no binding |
